- Tested on: HeLa Kyoto
- test: solubility in G1/S (NP-40 vs SDS abundance) (log2 ratio); higher = more soluble
- appliedConditions: cell cycle stage: G1/S
measurementName: solubility in G1/S (log2)

# entrySequence, measurement
rows = [
    ("MFRAAAPGQLRRAASLLRFQSTLVIAEHANDSLAPITLNTITAATRLGGEVSCLVAGTKCDKVAQDLCKVAGIAKVLVAQHDVYKGLLPEELTPLILATQKQFNYTHICAGASAFGKNLLPRVAAKLEVAPISDIIAIKSPDTFVRTIYAGNALCTVKCDEKVKVFSVRGTSFDAAATSGGSASSEKASSTSPVEISEWLDQKLTKSDRPELTGAKVVVSGGRGLKSGENFKLLYDLADQLHAAVGASRAAVDAGFVPNDMQVGQTGKIVAPELYIAVGISGAIQHLAGMKDSKTIVAINKDPEAPIFQVADYGIVADLFKVVPEMTEILKKK [ETFA]", 0.455),
    ("MRRSRSSAAAKLRGQKRSGASGASAAPAASAAAALAPSATRTRRSASQAGSKSQAVEKPPSEKPRLRRSSPRAQEEGPGEPPPPELALLPPPPPPPPTPATPTSSASNLDLGEQRERWETFQKRQKLTSEGAAKLLLDTFEYQGLVKHTGGCHCGAVRFEVWASADLHIFDCNCSICKKKQNRHFIVPASRFKLLKGAEHITTYTFNTHKAQHTFCKRCGVQSFYTPRSNPGGFGIAPHCLDEGTVRSMVTEEFNGSDWEKAMKEHKTIKNMSKE [CENPV]", -2.01),
    ("MSEDLAKQLASYKAQLQQVEAALSGNGENEDLLKLKKDLQEVIELTKDLLSTQPSETLASSDSFASTQPTHSWKVGDKCMAVWSEDGQCYEAEIEEIDEENGTAAITFAGYGNAEVTPLLNLKPVEEGRKAKEDSGNKPMSKKEMIAQQREYKKKKALKKAQRIKELEQEREDQKVKWQQFNNRAYSKNKKGQVKRSIFASPESVTGKVGVGTCGIADKPMTQYQDTSKYNVRHLMPQ [SMNDC1]", 0.271),
]

* * *

- System: HeLa Kyoto
- test: melting temperature (median over replicates), in situ; higher = more thermally stable
- appliedConditions: cell cycle stage: G1/S
Examples of substances with documented melting temperature follow.
measurementName: melting temperature

# substance, measurement
measured = [
    ("ARHGEF5", "50.6 °C"),
    ("MVGREKELSIHFVPGSCRLVEEEVNIPNRRVLVTGATGLLGRAVHKEFQQNNWHAVGCGFRRARPKFEQVNLLDSNAVHHIIHDFQPHVIVHCAAERRPDVVENQPDAASQLNVDASGNLAKEAAAVGAFLIYISSDYVFDGTNPPYREEDIPAPLNLYGKTKLDGEKAVLENNLGAAVLRIPILYGEVEKLEESAVTVMFDKVQFSNKSANMDHWQQRFPTHVKDVATVCRQLAEKRMLDPSIKGTFHWSGNEQMTKYEMACAIADAFNLPSSHLRPITDSPVLGAQRPRNAQLDCSKLETLGIGQRTPFRIGIKESLWPFLIDKRWRQTVFH [MAT2B]", "55.5 °C"),
    ("MVFYFTSSSVNSSAYTIYMGKDKYENEDLIKHGWPEDIWFHVDKLSSAHVYLRLHKGENIEDIPKEVLMDCAHLVKANSIQGCKMNNVNVVYTPWSNLKKTADMDVGQIGFHRQKDVKIVTVEKKVNEILNRLEKTKVERFPDLAAEKECRDREERNEKKAQIQEMKKREKEEMKKKREMDELRSYSSLMKVENMSSNQDGNDSDEFM [CCDC25]", "50.4 °C"),
    ("MKGSRIELGDVTPHNIKQLKRLNQVIFPVSYNDKFYKDVLEVGELAKLAYFNDIAVGAVCCRVDHSQNQKRLYIMTLGCLAPYRRLGIGTKMLNHVLNICEKDGTFDNIYLHVQISNESAIDFYRKFGFEIIETKKNYYKRIEPADAHVLQKNLKVPSGQNADVQKTDN [NAA50]", "53.1 °C"),
]

* * *

- Tested on: HeLa Kyoto
- test: solubility change mitosis vs G1/S (difference of NP-40 vs SDS log2 ratios) (log2 ratio difference); higher = more soluble in mitosis

# substance, solubility change mitosis (log2)
data = [
    ("MYHNSSQKRHWTFSSEEQLARLRADANRKFRCKAVANGKVLPNDPVFLEPHEEMTLCKYYEKRLLEFCSVFKPAMPRSVVGTACMYFKRFYLNNSVMEYHPRIIMLTCAFLACKVDEFNVSSPQFVGNLRESPLGQEKALEQILEYELLLIQQLNFHLIVHNPYRPFEGFLIDLKTRYPILENPEILRKTADDFLNRIALTDAYLLYTPSQIALTAILSSASRAGITMESYLSESLMLKENRTCLSQLLDIMKSMRNLVKKYEPPRSEEVAVLKQKLERCHSAELALNVITKKRKGYEDDDYVSKKSKHEEEEWTDDDLVESL [CCNH]", -0.195),
    ("MTDQAFVTLTTNDAYAKGALVLGSSLKQHRTTRRLVVLATPQVSDSMRKVLETVFDEVIMVDVLDSGDSAHLTLMKRPELGVTLTKLHCWSLTQYSKCVFMDADTLVLANIDDLFDREELSAAPDPGWPDCFNSGVFVYQPSVETYNQLLHLASEQGSFDGGDQGILNTFFSSWATTDIRKHLPFIYNLSSISIYSYLPAFKVFGASAKVVHFLGRVKPWNYTYDPKTKSVKSEAHDPNMTHPEFLILWWNIFTTNVLPLLQQFGLVKDTCSYVNVLSDLVYTLAFSCGFCRKEDVSGAISHLSLGEIPAMAQPFVSSEERKERWEQGQADYMGADSFDNIKRKLDTYLQ [GYG1]", -0.149),
    ("MASKRALVILAKGAEEMETVIPVDVMRRAGIKVTVAGLAGKDPVQCSRDVVICPDASLEDAKKEGPYDVVVLPGGNLGAQNLSESAAVKEILKEQENRKGLIAAICAGPTALLAHEIGFGSKVTTHPLAKDKMMNGGHYTYSENRVEKDGLILTSRGPGTSFEFALAIVEALNGKEVAAQVKAPLVLKD [PARK7]", 0.0696),
    ("MPAVLGFEGSANKIGVGVVRDGKVLANPRRTYVTPPGTGFLPGDTARHHRAVILDLLQEALTESGLTSQDIDCIAYTKGPGMGAPLVSVAVVARTVAQLWNKPLVGVNHCIGHIEMGRLITGATSPTVLYVSGGNTQVIAYSEHRYRIFGETIDIAVGNCLDRFARVLKISNDPSPGYNIEQMAKRGKKLVELPYTVKGMDVSFSGILSFIEDVAHRMLATGECTPEDLCFSLQETVFAMLVEITERAMAHCGSQEALIVGGVGCNVRLQEMMATMCQERGARLFATDERFCIDNGAMIAQAGWEMFRAGHRTPLSDSGVTQRYRTDEVEVTWRD [OSGEP]", -0.136),
    ("MAVTGWLESLRTAQKTALLQDGRRKVHYLFPDGKEMAEEYDEKTSELLVRKWRVKSALGAMGQWQLEVGDPAPLGAGNLGPELIKESNANPIFMRKDTKMSFQWRIRNLPYPKDVYSVSVDQKERCIIVRTTNKKYYKKFSIPDLDRHQLPLDDALLSFAHANCTLIISYQKPKEVVVAESELQKELKKVKTAHSNDGDCKTQ [DPCD]", -0.0049),
    ("CAMSAP1", 0.0139),
]

* * *

- Test system: HeLa Kyoto
- test: solubility in G1/S (NP-40 vs SDS abundance) (log2 ratio); higher = more soluble
- appliedConditions: cell cycle stage: G1/S
Examples of sequences with documented solubility in G1/S (log2) follow.

# entrySequence, solubility in G1/S (log2)
records = [
    ("MGAAAAEADRTLFVGNLETKVTEELLFELFHQAGPVIKVKIPKDKDGKPKQFAFVNFKHEVSVPYAMNLLNGIKLYGRPIKIQFRSGSSHAPQDVSLSYPQHHVGNSSPTSTSPSRYERTMDNMTSSAQIIQRSFSSPENFQRQAVMNSALRQMSYGGKFGSSPLDQSGFSPSVQSHSHSFNQSSSSQWRQGTPSSQRKVRMNSYPYLADRHYSREQRYTDHGSDHHYRGKRDDFFYEDRNHDDWSHDYDNRRDSSRDGKWRSSRH [RBM7]", 0.568),
    ("MPSSPLRVAVVCSSNQNRSMEAHNILSKRGFSVRSFGTGTHVKLPGPAPDKPNVYDFKTTYDQMYNDLLRKDKELYTQNGILHMLDRNKRIKPRPERFQNCKDLFDLILTCEERVYDQVVEDLNSREQETCQPVHVVNVDIQDNHEEATLGAFLICELCQCIQHTEDMENEIDELLQEFEEKSGRTFLHTVCFY [SSU72]", 0.4),
]

* * *

- Test system: HeLa Kyoto
- test: melting temperature (median over replicates), in situ; higher = more thermally stable
- appliedConditions: cell cycle stage: mitosis
Examples of substances with documented melting temperature follow.

# substance, melting temperature / °C
records = [
    ("MAAAEAGGDDARCVRLSAERAQALLADVDTLLFDCDGVLWRGETAVPGAPEALRALRARGKRLGFITNNSSKTRAAYAEKLRRLGFGGPAGPGASLEVFGTAYCTALYLRQRLAGAPAPKAYVLGSPALAAELEAVGVASVGVGPEPLQGEGPGDWLHAPLEPDVRAVVVGFDPHFSYMKLTKALRYLQQPGCLLVGTNMDNRLPLENGRFIAGTGCLVRAVEMAAQRQADIIGKPSRFIFDCVSQEYGINPERTVMVGDRLDTDILLGATCGLKTILTLTGVSTLGDVKNNQESDCVSKKKMVPDFYVDSIADLLPALQG [PGP]", 58.2),
    ("MEAARTAVLRVKRKRSAEPAEALVLACKRLRSDAVESAAQKTSEGLERAAENNVFHLVATVCSQEEPVQPLLREVLRPSRDSQQRVRRNLRASAREVRQEGRYRVLSSRRSLGTTSSGQESEYTPGNPEAAGNSGFQLLDLVHEEGEPEAASAGSCKTSDPDVILCNSVELIRERLTVSEDGPGVRRQEEQKHDDYVYDIYYLETATPGWIENILSVQPYSQEWELVNDDQEPEDIYDDEDDENSENNWRNEYPEEESSDGDEDSRGSADYNSLSEEERGSSRQRMWSKYPLDVQKEFGYDSPHDLDSD [SLC7A6OS]", 54),
    ("MEGGGGSGNKTTGGLAGFFGAGGAGYSHADLAGVPLTGMNPLSPYLNVDPRYLVQDTDEFILPTGANKTRGRFELAFFTIGGCCMTGAAFGAMNGLRLGLKETQNMAWSKPRNVQILNMVTRQGALWANTLGSLALLYSAFGVIIEKTRGAEDDLNTVAAGTMTGMLYKCTGGLRGIARGGLTGLTLTSLYALYNNWEHMKGSLLQQSL [TIMM23]", 55.6),
    ("MADAASQVLLGSGLTILSQPLMYVKVLIQVGYEPLPPTIGRNIFGRQVCQLPGLFSYAQHIASIDGRRGLFTGLTPRLCSGVLGTVVHGKVLQHYQESDKGEELGPGNVQKEVSSSFDHVIKETTREMIARSAATLITHPFHVITLRSMVQFIGRESKYCGLCDSIITIYREEGILGFFAGLVPRLLGDILSLWLCNSLAYLVNTYALDSGVSTMNEMKSYSQAVTGFFASMLTYPFVLVSNLMAVNNCGLAGGCPPYSPIYTSWIDCWCMLQKEGNMSRGNSLFFRKVPFGKTYCCDLKMLI [MTCH2]", 57),
    ("MLQQDSNDDTEDVSLFDAEEETTNRPRKAKIRHPVASFFHLFFRVSAIIVCLLCELLSSSFITCMVTIILLLSCDFWAVKNVTGRLMVGLRWWNHIDEDGKSHWVFESRKESSQENKTVSEAESRIFWLGLIACSVLWVIFAFSALFSFTVKWLRRSRHIAQTGLKVLGSRDPPASAFQSAGITGVSRCPGHPSRKFHQVDINSFTRITDRALYWKPAPRLSSPPLRAAPGNCQQMAPARLFLSLRLWAWRGGGESPNSRGTGEPGPKFHLASGMH [TVP23C]", 56),
    ("MAPRGRKRKAEAAVVAVAEKREKLANGGEGMEEATVVIEHCTSURVYGRNAAALSQALRLEAPELPVKVNPTKPRRGSFEVTLLRPDGSSAELWTGIKKGPPRKLKFPEPQEVVEELKKYLS [SELH]", 52.2),
    ("MVDYSVWDHIEVSDDEDETHPNIDTASLFRWRHQARVERMEQFQKEKEELDRGCRECKRKVAECQRKLKELEVAEGGKAELERLQAEAQQLRKEERSWEQKLEEMRKKEKSMPWNVDTLSKDGFSKSMVNTKPEKTEEDSEEVREQKHKTFVEKYEKQIKHFGMLRRWDDSQKYLSDNVHLVCEETANYLVIWCIDLEVEEKCALMEQVAHQTIVMQFILELAKSLKVDPRACFRQFFTKIKTADRQYMEGFNDELEAFKERVRGRAKLRIEKAMKEYEEEERKKRLGPGGLDPVEVYESLPEELQKCFDVKDVQMLQDAISKMDPTDAKYHMQRCIDSGLWVPNSKASEAKEGEEAGPGDPLLEAVPKTGDEKDVSV [CDC37]", 52.6),
    ("GPATCH8", 49.6),
    ("MSFLLPKLTSKKEVDQAIKSTAEKVLVLRFGRDEDPVCLQLDDILSKTSSDLSKMAAIYLVDVDQTAVYTQYFDISYIPSTVFFFNGQHMKVDYGSPDHTKFVGSFKTKQDFIDLIEVIYRGAMRGKLIVQSPIDPKNIPKYDLLYQDI [TXNL4B]", 51.8),
    ("MDLFGDLPEPERSPRPAAGKEAQKGPLLFDDLPPASSTDSGSGGPLLFDDLPPASSGDSGSLATSISQMVKTEGKGAKRKTSEEEKNGSEELVEKKVCKASSVIFGLKGYVAERKGEREEMQDAHVILNDITEECRPPSSLITRVSYFAVFDGHGGIRASKFAAQNLHQNLIRKFPKGDVISVEKTVKRCLLDTFKHTDEEFLKQASSQKPAWKDGSTATCVLAVDNILYIANLGDSRAILCRYNEESQKHAALSLSKEHNPTQYEERMRIQKAGGNVRDGRVLGVLEVSRSIGDGQYKRCGVTSVPDIRRCQLTPNDRFILLACDGLFKVFTPEEAVNFILSCLEDEKIQTREGKSAADARYEAACNRLANKAVQRGSADNVTVMVVRIGH [ILKAP]", 49.8),
    ("MNAEPERKFGVVVVGVGRAGSVRMRDLRNPHPSSAFLNLIGFVSRRELGSIDGVQQISLEDALSSQEVEVAYICSESSSHEDYIRQFLNAGKHVLVEYPMTLSLAAAQELWELAEQKGKVLHEEHVELLMEEFAFLKKEVVGKDLLKGSLLFTAGPLEEERFGFPAFSGISRLTWLVSLFGELSLVSATLEERKEDQYMKMTVCLETEKKSPLSWIEEKGPGLKRNRYLSFHFKSGSLENVPNVGVNKNIFLKDQNIFVQKLLGQFSEKELAAEKKRILHCLGLAEEIQKYCCSRK [BLVRA]", 55),
]

Hello, the source for this data is the supplement of paper PMC5998384, in case you need it.
